Taken from the supplement of paper PMC11451515.

Listed compounds paired with reported cell viability
System: SEM cells
Protocol: cell viability relative to DMSO control; higher = less cytotoxic
Conditions used: HPLM + 10% dialyzed FBS; 48 h; 0.569 µM

{"Compound": "CC(C)(C)OC(=O)N[C@H]1CCCCC/C=C\\[C@@H]2C[C@@]2(C(=O)N[S+](=O)([O-])C2CC2)NC(=O)[C@@H]2C[C@@H](OC(=O)N3Cc4cccc(F)c4C3)CN2C1=O", "cell viability, %": 92.1}
{"Compound": "CC(C)CNc1ccnc(NCc2csc(-c3ccccc3)n2)n1", "cell viability, %": 107}
{"Compound": "C[C@]12CC[C@@H]3c4ccc(O)cc4CC[C@H]3[C@@H]1[C@@H](O)[C@@H](O)[C@@H]2O", "cell viability, %": 123}
{"Compound": "CC(C)C1NC(=O)C(NC(=O)C2=C3\\N=C\\4/C(=C(C)\\C(=O)\\C(=C4C(=O)NC5C(C)OC(=O)C(C(C)C)N(C)C(=O)CN(C)C(=O)C6CCCN6C(=O)C(NC5=O)C(C)C)N)OC3=C(C)C=C2)C(C)OC(=O)C(C(C)C)N(C)C(=O)CN(C)C(=O)C7CCCN7C1=O (stereo unspecified)", "cell viability, %": 5.75}
{"Compound": "Cc1onc(-c2ccccc2Cl)c1C(=O)N[C@@H]1C(=O)N2[C@@H]1SC(C)(C)[C@@H]2C(=O)[O-]", "cell viability, %": 83.5}
{"Compound": "C[C@@H](Oc1cc(-c2cnn(C3CCNCC3)c2)cnc1N)c1c(Cl)ccc(F)c1Cl", "cell viability, %": 111}
